Cited source: ChEMBL document CHEMBL3091434

# SYSTEM: Delta-type opioid receptor (Homo sapiens)
# Sequence (P41143 whole entry): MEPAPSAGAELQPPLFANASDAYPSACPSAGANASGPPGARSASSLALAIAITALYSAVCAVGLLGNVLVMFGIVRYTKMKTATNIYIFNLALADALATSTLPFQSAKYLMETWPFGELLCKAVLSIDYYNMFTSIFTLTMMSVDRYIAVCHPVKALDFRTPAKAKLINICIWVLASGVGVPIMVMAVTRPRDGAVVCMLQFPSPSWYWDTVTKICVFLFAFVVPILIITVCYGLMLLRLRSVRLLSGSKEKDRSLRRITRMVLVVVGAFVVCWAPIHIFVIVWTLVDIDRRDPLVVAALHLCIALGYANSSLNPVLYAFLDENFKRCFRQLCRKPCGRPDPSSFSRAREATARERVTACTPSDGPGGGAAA
# RUN DESCRIPTION: Agonist activity at human recombinant delta opioid receptor expressed in CHO cells after 2 hrs by [35S]GTPgammaS binding assay
Measured pEC50, listed per entry for reference.
// field semantics: pEC50 = negative decimal log of concentration (mol/L)

Value of measured pEC50 for the entry Oc1ccc2c(c1)[C@]13CCN(CCF)[C@H](C2)[C@]1(O)Cc1cc2ccccc2nc1C3 : 8.85

Measured pEC50 of OCCN1CC[C@]23Cc4nc5ccccc5cc4C[C@@]2(O)[C@H]1Cc1ccc(O)cc13 : 8.64

pEC50 measured on Oc1ccc2c(c1)[C@]13CCN(CC4CC4)[C@H](C2)[C@]1(O)Cc1cc2ccccc2nc1C3 = 8.98

// recorded pEC50 for CCN1CC[C@]23Cc4nc5ccccc5cc4C[C@@]2(O)[C@H]1Cc1ccc(O)cc13 : 8.96

Lab note: measured pEC50 of CCOCCCN1CC[C@]23Cc4nc5ccccc5cc4C[C@@]2(O)[C@H]1Cc1ccc(O)cc13 was 9.11
